Assay: drug combination growth inhibition, ovarian cancer – cell-based, oncology-focused library, rucaparib conditional, profiling panel (AID 1508598)
Settings: patient-derived ovarian cancer cells, CellTiter-Glo viability, 144 h; at 0.000305 µM; OCI-P5x cells; without rucaparib; hits give low values
Result type: viability (%)

Mol: O=c1c(O)c(-c2ccc(O)c(O)c2)oc2cc(O)cc(O)c12
Result type: viability
Output unit: %
Numeric readout: 92.3
//
Mol: Cn1nnc2c(C(N)=O)ncn2c1=O
Result type: viability
Output unit: %
Numeric readout: 88.3
//
Mol: N#Cc1ccc(C(c2ccc(C#N)cc2)n2cncn2)cc1
Result type: viability
Output unit: %
Numeric readout: 91
